Biological target: T1, CEACAM1 (Sino Biological) (human, UniProt P13688 35-428, limits assumed)
T1 construct: may be the same as CEACAM1-HIS; also called hCEACAM1; biotinylated soluble CEACAM1
T1 sequence: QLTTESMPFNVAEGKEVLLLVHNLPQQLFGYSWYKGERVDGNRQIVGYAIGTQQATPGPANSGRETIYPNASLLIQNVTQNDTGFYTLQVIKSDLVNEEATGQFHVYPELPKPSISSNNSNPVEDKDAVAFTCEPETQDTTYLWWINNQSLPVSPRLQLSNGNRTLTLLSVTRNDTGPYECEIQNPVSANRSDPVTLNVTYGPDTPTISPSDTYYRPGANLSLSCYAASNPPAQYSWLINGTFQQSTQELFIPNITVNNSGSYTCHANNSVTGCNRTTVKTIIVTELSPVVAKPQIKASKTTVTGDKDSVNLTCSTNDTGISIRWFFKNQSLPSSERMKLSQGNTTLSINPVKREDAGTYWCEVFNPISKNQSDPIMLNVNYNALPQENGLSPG
Test: SPR single-cycle
We label by threshold. Values of fold better than Parent (KD) strictly beneath 2 fold are class 1. Values of 2 fold and up are class 0.

[
  {
    "Binder": "He9/L18 (antibody, IgG4, V domains shown, IgG4 S241P, kappa) VH: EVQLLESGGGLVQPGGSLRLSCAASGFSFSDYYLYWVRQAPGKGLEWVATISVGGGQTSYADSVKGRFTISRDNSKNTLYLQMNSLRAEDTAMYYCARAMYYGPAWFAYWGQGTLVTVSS VL: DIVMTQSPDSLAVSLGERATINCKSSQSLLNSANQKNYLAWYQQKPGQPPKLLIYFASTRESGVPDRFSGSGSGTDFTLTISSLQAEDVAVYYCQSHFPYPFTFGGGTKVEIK",
    "Group label": "class 0"
  },
  {
    "Binder": "He3/L20 (antibody, IgG4, V domains shown, IgG4 S241P, kappa; also called He3 / 20) VH: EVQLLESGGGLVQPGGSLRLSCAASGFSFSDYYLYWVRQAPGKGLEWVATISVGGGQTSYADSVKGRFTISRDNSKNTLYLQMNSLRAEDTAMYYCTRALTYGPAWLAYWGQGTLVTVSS VL: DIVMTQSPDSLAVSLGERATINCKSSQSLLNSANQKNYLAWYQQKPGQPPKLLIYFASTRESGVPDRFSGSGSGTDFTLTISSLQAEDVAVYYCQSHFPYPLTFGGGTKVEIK",
    "Group label": "class 0"
  },
  {
    "Binder": "He14/L4 #1 (antibody, IgG4, V domains shown, IgG4 S241P, kappa) VH: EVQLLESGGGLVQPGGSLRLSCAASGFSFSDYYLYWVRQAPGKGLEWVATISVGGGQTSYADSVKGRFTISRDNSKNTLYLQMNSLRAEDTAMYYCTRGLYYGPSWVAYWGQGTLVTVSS VL: DIVMTQSPDSLAVSLGERATINCKSSQSLLNSANQKNYLAWYQQKPGQPPKLLIYFASTRESGVPDRFSGSGSGTDFTLTISSLQAEDVAVYYCQSHFPYYYTFGGGTKVEIK",
    "Group label": "class 1"
  },
  {
    "Binder": "He6/L1 (antibody, IgG4, V domains shown, IgG4 S241P, kappa) VH: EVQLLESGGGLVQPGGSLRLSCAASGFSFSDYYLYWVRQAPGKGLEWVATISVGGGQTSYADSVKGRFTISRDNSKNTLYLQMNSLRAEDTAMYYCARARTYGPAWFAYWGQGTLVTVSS VL: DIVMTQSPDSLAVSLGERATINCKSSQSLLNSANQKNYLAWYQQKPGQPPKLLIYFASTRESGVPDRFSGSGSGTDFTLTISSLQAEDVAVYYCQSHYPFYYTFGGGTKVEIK",
    "Group label": "class 1"
  },
  {
    "Binder": "He6/L4 #1 (antibody, IgG4, V domains shown, IgG4 S241P, kappa) VH: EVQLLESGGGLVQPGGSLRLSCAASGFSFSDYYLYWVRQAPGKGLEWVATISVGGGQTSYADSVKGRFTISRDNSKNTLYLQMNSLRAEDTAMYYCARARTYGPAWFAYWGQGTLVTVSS VL: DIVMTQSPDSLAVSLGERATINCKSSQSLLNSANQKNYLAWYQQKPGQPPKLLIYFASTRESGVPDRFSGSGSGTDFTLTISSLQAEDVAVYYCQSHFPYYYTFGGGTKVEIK",
    "Group label": "class 1"
  }
]

This collection of values is drawn from patent US20250388666A1.
